# EC50 annotations
- ASSAY_NOTES: Cytotoxicity against neuroblastoma Neuro 2A cells (nonspecific esterase activity assay)
- Assay type: cell-based, mouse
- CONDITIONS: mouse neuroblastoma Neuro 2A cells
Numeric only. Scale: µM

{"COMPOUND": "C=C(C)CCC[C@]1(C)OC(=O)[C@]23CC=C4[C@@H](CC[C@H]5C(C)(C)[C@@H](O[C@@H]6OC[C@@H](O)[C@H](O)[C@H]6O[C@@H]6O[C@H](CO)[C@@H](O[C@@H]7O[C@H](COS(=O)(=O)O)[C@@H](O)[C@H](O[C@@H]8O[C@H](COS(=O)(=O)O)[C@@H](O)[C@H](OC)[C@H]8O)[C@H]7O)[C@H](O)[C@H]6O)CC[C@]45C)[C@]2(C)CC(=O)[C@@H]31 [Psolusoside G (4)]", "UNIT_SPEC": "µM", "EC50": 7.3}
{"COMPOUND": "C=C(C)CCC[C@]1(C)OC(=O)[C@]23CC[C@@H]4C(=CC[C@H]5C(C)(C)[C@@H](O[C@@H]6OC[C@@H](O)[C@H](O)[C@H]6O[C@@H]6O[C@H](CO)[C@@H](O[C@@H]7O[C@H](COS(=O)(=O)O)[C@@H](O)[C@H](O)[C@H]7O)[C@H](O)[C@H]6O)CC[C@]45C)[C@]2(C)CC(=O)[C@@H]31 [Psolusoside H (5)]", "UNIT_SPEC": "µM", "EC50": 47.5}

Field: next compound
-- ask Given C=C(C)CCC[C@]1(C)OC(=O)[C@]23CC[C@@H]4C(=CC[C@H]5C(C)(C)[C@@H](O[C@@H]6OC[C@@H](O[C@@H]7O[C@H](COS(=O)(=O)O)[C@@H](O)[C@H](O)[C@H]7O)[C@H](O)[C@H]6O[C@@H]6OC[C@@H](O[C@@H]7O[C@H](COS(=O)(=O)O)[C@@H](O)[C@H](O)[C@H]7O)[C@H](O)[C@H]6O)CC[C@]45C)[C@]2(C)C[C@H](OC(C)=O)[C@@H]31 [Psolusoside I (7)] , state its recorded EC50.
-- reply 26.8

---

- ASSAY_NOTES: Cytotoxicity against neuroblastoma Neuro 2A cells (nonspecific esterase activity assay)
- Format: cell-based, mouse
- CONDITIONS: mouse neuroblastoma Neuro 2A cells
EXPERIMENTAL_READOUT: EC50 (µM)
Numeric only. Scale: µM

{"MOLECULE": "C=C(C)CCC[C@]1(C)OC(=O)[C@]23CC=C4[C@@H](CC[C@H]5C(C)(C)[C@@H](O[C@@H]6OC[C@@H](O)[C@H](O)[C@H]6O[C@@H]6O[C@H](C)[C@@H](O[C@@H]7O[C@H](COS(=O)(=O)O)[C@@H](O)[C@H](O[C@@H]8O[C@H](CO)[C@@H](O)[C@H](OC)[C@H]8O)[C@H]7O)[C@H](O)[C@H]6O)CC[C@]45C)[C@]2(C)CC(=O)[C@@H]31 [Psolusoside E (2)]", "EC50 (µM)": 3.96}

-- ask Given C=C(C)CCC[C@]1(C)OC(=O)[C@]23CC[C@@H]4C(=CC[C@H]5C(C)(C)[C@@H](O[C@@H]6OC[C@@H](O)[C@H](O)[C@H]6O[C@@H]6O[C@H](CO)[C@@H](O[C@@H]7O[C@H](COS(=O)(=O)O)[C@@H](O)[C@H](O)[C@H]7O)[C@H](O)[C@H]6O)CC[C@]45C)[C@]2(C)CC[C@@H]31 [Psolusoside H1 (6)] , state its recorded EC50.
-- reply 10.7

-- ask Given C=C(C)CCC[C@]1(C)OC(=O)[C@]23CC=C4[C@@H](CC[C@H]5C(C)(C)[C@@H](O[C@@H]6OC[C@@H](O)[C@H](O)[C@H]6O[C@@H]6O[C@H](C)[C@@H](O[C@@H]7O[C@H](CO)[C@@H](O)[C@H](O[C@@H]8O[C@H](COS(=O)(=O)O)[C@@H](O)[C@H](OC)[C@H]8O)[C@H]7O)[C@H](O)[C@H]6O)CC[C@]45C)[C@]2(C)CC(=O)[C@@H]31 [Psolusoside F (3)] , state its recorded EC50.
-- reply 10.8
